Values from patent EP0619313A1

Test: Toxicity after oral or intravenous administration, rats
Type: in vivo
Conditions: rat, in vivo, intravenous administration, dissolved in physiological saline, read-out: LD₅₀
measurement_label: LD50

CCCCCCCCCCCCCCCCCCOC1=C(O)[C@@H]([C@@H](O)CO)OC1=O.[Li] [2-O-octadecylascorbic acid lithium]; 25 to 50 mg/kg
